Assay: Inhibition of HCV genotype 1 polymerase
Design: species or system Hepacivirus hominis
endpoint.label: IC50 (nM)

# example entries with known answers
query: Recorded IC50 for `CC(C)CCn1c(=O)c(C2=NS(=O)(=O)c3ccccc3N2)c(O)c2cccnc21` , please?
result: 810

query: # input compound: `CC(C)CCn1c(=O)c(C2=NS(=O)(=O)c3cc(NCC(N)=O)ccc3N2)c(O)c2cccnc21` ; wanted: its IC50
result: 470

query: Entry `CC(C)CNn1c(=O)c(C2=NS(=O)(=O)c3ccccc3N2)c(O)c2ccccc21` has what IC50?
result: 941

I. CC(C)CCn1c(=O)c(C2=NS(=O)(=O)c3cc(NS(N)(=O)=O)ccc3N2)c(O)c2cccnc21
II. CC(C)CCn1c(=O)c(C2=NS(=O)(=O)c3cc(OCCN)ccc3N2)c(O)c2cccnc21
query: Which one would you say has the larger IC50 value: I , or II ? Mark your answer with the label of the selected entry.
result: II
(II: 637000 nM, I: 9 nM)

P. CC(C)Nn1c(=O)c(C2=NS(=O)(=O)c3ccccc3N2)c(O)c2ccccc21
Q. CC(C)CCn1c(=O)c(C2=NS(=O)(=O)c3cc(OCC(N)=O)ccc3N2)c(O)c2cccnc21
query: Hey, between P and Q which has a smaller measured IC50? Could you answer with the label of the item you picked?
result: Q
(Q: 46 nM, P: 6350 nM)

P. COc1ccc2c(c1)S(=O)(=O)N=C(c1c(O)c3cccnc3n(CCC(C)C)c1=O)N2
Q. O=c1c(C2=NS(=O)(=O)c3ccccc3N2)c(O)c2ccccc2n1NCc1ccco1
query: Sorting ascending by IC50, which comes first: P or Q ? Which one? Tell me its label.
result: P
(P: 1130 nM, Q: 3260 nM)

----------
Assay: Inhibition of HCV genotype 1 polymerase
Design: species or system Hepacivirus hominis
pIC50: −log10 of the molar value.
endpoint.label: pIC50

query: Any idea what its pIC50 is? The compound is `O=c1c(C2=NS(=O)(=O)c3ccccc3N2)c(O)c2ccccc2n1NCC1=CCOC=C1`
result: 5.33

query: What does the record list as pIC50 for `COc1ccc2c(c1)S(=O)(=O)NC(c1c(O)c3cccnc3n(Cc3ccccc3)c1=O)=N2` ?
result: 5.08

query: Which pIC50 is reported for this compound? `CC(C)CCn1c(=O)c(C2=NS(=O)(=O)c3cc(N)ccc3N2)c(O)c2cccnc21`
result: 6.51

I. O=c1c(C2=NS(=O)(=O)c3ccccc3N2)c(O)c2ccccc2n1NCC1CCCC1
II. CCC(CC)Nn1c(=O)c(C2=NS(=O)(=O)c3ccccc3N2)c(O)c2ccccc21
query: Hello, I am sorting some records. Could you say if I or II has the smaller pIC50 value? Answer = label.
result: II
(II: 5.61, I: 6.13)

A. CC(C)CCNn1c(=O)c(C2=NS(=O)(=O)c3ccccc3N2)c(O)c2ccccc21
B. Cc1cccc(CNn2c(=O)c(C3=NS(=O)(=O)c4ccccc4N3)c(O)c3ccccc32)c1
query: Quick one: lower pIC50, A or B ? // respond with label for picked entry
result: B
(B: 5.09, A: 6.20)

A. O=c1c(C2=NS(=O)(=O)c3ccccc3N2)c(O)c2cccnc2n1Cc1ccccc1
B. O=c1c(C2=NS(=O)(=O)c3ccccc3N2)c(O)c2ccccc2n1NCc1nccs1
query: Recorded pIC50 values differ for A and B ; which one is higher? Your answer should be the label attached to the chosen record.
result: A
(A: 5.24, B: 4.45)

----------
Assay: Inhibition of HCV genotype 1 polymerase
Design: species or system Hepacivirus hominis
endpoint.label: IC50 (nM)

Past entries and their recorded results:
query: Name the recorded IC50 for `CC(C)CCn1c(=O)c(C2=NS(=O)(=O)c3cc(NS(=O)(=O)Nc4cccc(C(N)=O)c4)ccc3N2)c(O)c2cccnc21` .
result: 43

query: If you can, please state the reported IC50 value of `CCCOc1ccc2c(c1)S(=O)(=O)NC(c1c(O)c3cccnc3n(CCC(C)C)c1=O)=N2` .
result: 1620

a. CC(C)CCn1c(=O)c(C2=NS(=O)(=O)c3cc(NS(=O)(=O)NCc4ccccc4)ccc3N2)c(O)c2cccnc21
b. COc1ccccc1CNS(=O)(=O)Nc1ccc2c(c1)S(=O)(=O)N=C(c1c(O)c3cccnc3n(CCC(C)C)c1=O)N2
query: Hi, I'm comparing two records. Which one has the lower IC50, a or b ? I would appreciate it if you answered with the label of your choice.
result: a

----------
Assay: Inhibition of HCV genotype 1 polymerase
Design: species or system Hepacivirus hominis
endpoint.label: IC50 (nM)

a. CC(C)CCn1c(=O)c(C2=NS(=O)(=O)c3cc(NS(=O)(=O)c4ccccc4)ccc3N2)c(O)c2cccnc21
b. COC(=O)c1ccccc1NS(=O)(=O)Nc1ccc2c(c1)S(=O)(=O)N=C(c1c(O)c3cccnc3n(CCC(C)C)c1=O)N2
query: Would you mind telling me which has the lower recorded IC50 between a and b ? Refer to your chosen item by its label in the answer.
result: a
(a: 41 nM, b: 129 nM)

P. CC(C)CCn1c(=O)c(C2=NS(=O)(=O)c3cc(NS(=O)(=O)Nc4cccc(C(=O)NCC(N)=O)c4)ccc3N2)c(O)c2cccnc21
Q. CCOC(=O)c1cccc(NS(=O)(=O)Nc2ccc3c(c2)S(=O)(=O)N=C(c2c(O)c4cccnc4n(CCC(C)C)c2=O)N3)c1
query: Which entry has a larger number for IC50, P or Q ? Record your answer as the label of the chosen record.
result: Q
(Q: 132 nM, P: 43 nM)

I. O=c1c(C2=NS(=O)(=O)c3ccccc3N2)c(O)c2ccccc2n1NCc1cccs1
II. CC(C)CCn1c(=O)c(C2=NS(=O)(=O)c3cc(NS(=O)(=O)NCCc4ccccc4)ccc3N2)c(O)c2cccnc21
III. O=c1c(C2=NS(=O)(=O)c3ccccc3N2)c(O)c2ccccc2n1NC1CCCCC1
IV. CC(C)CCn1c(=O)c(C2=NS(=O)(=O)c3cc(NS(=O)(=O)NC(=O)OCCOCc4ccccc4)ccc3N2)c(O)c2cccnc21
query: Arrange these compounds by their IC50, starting with the largest number. A complete answer lists every label in the requested sequence.
result: I, III, IV, II
(I: 2330 nM, III: 356 nM, IV: 96 nM, II: 18 nM)

I. COc1cccc(CNS(=O)(=O)Nc2ccc3c(c2)S(=O)(=O)N=C(c2c(O)c4cccnc4n(CCC(C)C)c2=O)N3)c1
II. CNS(=O)(=O)Nc1ccc2c(c1)S(=O)(=O)N=C(c1c(O)c3cccnc3n(NC3CCC3)c1=O)N2
III. CCCC(Nn1c(=O)c(C2=NS(=O)(=O)c3ccccc3N2)c(O)c2ccccc21)C(C)C (stereo not drawn)
IV. CC(C)CCn1c(=O)c(C2=NS(=O)(=O)c3cc(NS(=O)(=O)Nc4cccc(C(=O)O)c4)ccc3N2)c(O)c2cccnc21
query: # rank_down: sort by IC50, max first Output spec: labels arranged per the requested ranking.
result: II, III, IV, I
(II: 87000 nM, III: 6400 nM, IV: 115 nM, I: 15 nM)

----------
Experiment: Inhibition of HCV genotype 1 polymerase
Set-up: species or system Hepacivirus hominis
endpoint.label: IC50 (nM)

Sample answers from the record:
query: Which IC50 is reported for this compound? `COc1ccc(CNS(=O)(=O)Nc2ccc3c(c2)S(=O)(=O)N=C(c2c(O)c4cccnc4n(CCC(C)C)c2=O)N3)cc1`
result: 10

query: Give its IC50 value. Item: `CCCCS(=O)(=O)Nc1ccc2c(c1)S(=O)(=O)NC(c1c(O)c3cccnc3n(CCC(C)C)c1=O)=N2`
result: 22

query: Any idea what its IC50 is? The compound is `CC(C)CCn1c(=O)c(C2=NS(=O)(=O)c3cc(NS(=O)(=O)NCCC(N)=O)ccc3N2)c(O)c2cccnc21`
result: 20

1. CC(C)CCn1c(=O)c(C2=NS(=O)(=O)c3cc(NS(=O)(=O)C(C)C)ccc3N2)c(O)c2cccnc21
2. CC(C)CCn1c(=O)c(C2=NS(=O)(=O)c3cc(NS(=O)(=O)NC(=O)OCCN)ccc3N2)c(O)c2cccnc21
3. O=c1c(C2=NS(=O)(=O)c3ccccc3N2)c(O)c2ccccc2n1NCc1ccoc1
query: # rank by IC50, ascending (min first) Response field: labels, in requested order.
result: 1, 2, 3

----------
Test: Inhibition of HCV genotype 1 polymerase
Set-up: species or system Hepacivirus hominis
endpoint.label: IC50 (nM)

query: Please report the recorded IC50 for `CCCCNn1c(=O)c(C2=NS(=O)(=O)c3ccccc3N2)c(O)c2ccccc21` .
result: 951

query: # lookup: IC50 of `CC(C)CCn1c(=O)c(C2=NS(=O)(=O)c3cc(NS(C)(=O)=O)ccc3N2)c(O)c2cccnc21`
result: 2

query: Name the reported IC50 value associated with the compound `CC(C)CCn1c(=O)c(C2=NS(=O)(=O)c3cc(NCC#N)ccc3N2)c(O)c2cccnc21`
result: 120

query: Quick check: IC50 of `CC(C)CCn1c(=O)c(C2=NS(=O)(=O)c3cc(NS(=O)(=O)NC(=O)OCc4ccccc4)ccc3N2)c(O)c2cccnc21` ?
result: 58

query: Tell me the measured IC50 of `C#CCOC(=O)NS(=O)(=O)Nc1ccc2c(c1)S(=O)(=O)N=C(c1c(O)c3cccnc3n(CCC(C)C)c1=O)N2` , please.
result: 72

query: Item `O=c1c(C2=NS(=O)(=O)c3ccccc3N2)c(O)c2ccccc2n1NCC1CC1` has what recorded IC50?
result: 285

query: Could you tell me which IC50 is on file for `NS(=O)(=O)Nc1ccc2c(c1)S(=O)(=O)N=C(c1c(O)c3cccnc3n(NC3CCC3)c1=O)N2` ?
result: 5.2

query: What value of IC50 has been reported for the following compound? `CC(C)CCn1c(=O)c(C2=NS(=O)(=O)c3cc(NS(=O)(=O)NCCO)ccc3N2)c(O)c2cccnc21`
result: 107

query: Which IC50 reading was recorded for the compound `COC(=O)NS(=O)(=O)Nc1ccc2c(c1)S(=O)(=O)N=C(c1c(O)c3cccnc3n(CCC(C)C)c1=O)N2` ?
result: 63

query: So what does the record say about IC50 for `CC(C)CCn1c(=O)c(C2=NS(=O)(=O)c3cc(NS(=O)(=O)Nc4ccccc4)ccc3N2)c(O)c2cccnc21` ?
result: 41

1. CC(C)CCn1c(=O)c(C2=NS(=O)(=O)c3cc(OCC#N)ccc3N2)c(O)c2cccnc21
2. CCCCCNn1c(=O)c(C2=NS(=O)(=O)c3ccccc3N2)c(O)c2ccccc21
query: Hi, I'm comparing 1 with 2 and wondering which one has the bigger number for IC50. Any idea? Identify your selection by its label.
result: 2

A. CC(C)CCn1c(=O)c(C2=NS(=O)(=O)c3cc(NS(=O)(=O)Nc4ccc(C(N)=O)cc4)ccc3N2)c(O)c2cccnc21
B. CC(C)CCn1c(=O)c(C2=NS(=O)(=O)c3cc(OCC(=O)N(C)C)ccc3N2)c(O)c2cccnc21
query: Of the two listed items, which has the higher IC50? First: A Second: B Identify your selection by its label.
result: B
(B: 934 nM, A: 18 nM)

I. Cc1ccccc1CNn1c(=O)c(C2=NS(=O)(=O)c3ccccc3N2)c(O)c2ccccc21
II. COc1cccc2c1NC(c1c(O)c3cccnc3n(CCC(C)C)c1=O)=NS2(=O)=O
query: Please state the entry with greater IC50 among I and II . Indicate your choice by writing its label.
result: II
(II: 17600 nM, I: 6120 nM)

a. CC(C)CCn1c(=O)c(C2=NS(=O)(=O)c3cc(O)ccc3N2)c(O)c2cccnc21
b. O=c1c(C2=NS(=O)(=O)c3cccc(Br)c3N2)c(O)c2cccnc2n1Cc1ccccc1
c. CNC(=O)COc1ccc2c(c1)S(=O)(=O)NC(c1c(O)c3cccnc3n(CCC(C)C)c1=O)=N2
d. COc1cccc2c1NC(c1c(O)c3cccnc3n(Cc3ccccc3)c1=O)=NS2(=O)=O
query: // sort entries: IC50, high to low Return the labels ranked in the requested order, please.
result: d, b, a, c
